Where these numbers come from: PubChem BioAssay (NCI)

Listed next: entries and their corresponding GI50.
- System: SN12C renal
- TEST: NCI tumour cell line growth inhibition, 48 h

Find the measured GI50: item Cc1ccc(/C=C2\CN(Cc3cn(CCNc4ccnc5cc(Cl)ccc45)nn3)C/C(=C\c3ccc(C)cc3)C2=O)cc1 , target or system SN12C renal. 1.93 µM

Next up: COc1cc(CNC(=O)CCSc2nc3ccccc3c(=O)n2Cc2cc(OC)c(OC)c(OC)c2)cc(OC)c1OC 8.1 µM

Next up: Cc1nc2sc(C(=O)Nc3cccc(Cl)c3C)c(N)c2cc1C(C)O (centres undefined) 0.916 µM

Next up: CS(=O)(=O)Nc1cc(-c2ccc3ncnc(Nc4cccc(Cl)c4F)c3c2)cnc1Cl 3.89 µM

Next up: C#CCOc1cccc(Nc2ncc3ncn(C4CCN(C(=O)CCl)C4)c3n2)c1 (centres undefined) 29.1 µM

Next up: C=C1C[C@@H]2[C@H](CC[C@]3(C)C(=O)CC[C@@H]23)[C@@]2(C)C=CC(=O)C=C12 21 µM

Next up: N#C/C(=C\c1cccnc1)c1nc2ccccc2o1 > 100 µM

* * *

- Test system: SW-620 colon
- TEST: NCI tumour cell line growth inhibition, 48 h
Listed next: entries and their corresponding TGI.

# MOLECULE, RESULT
records = [
    ("CC1(C)N=C(N)N=C(N)N1c1ccc(OCCCCNC(=O)c2ccc(S(=O)(=O)F)cc2)c(Cl)c1", "> 100 µM"),
    ("Cc1nn(-c2ccccn2)c2c1C(SC#N)=C(C=O)CC2", "59.3 µM"),
]

Please give the measured TGI for this molecule: c1ccc2c(c1)c1c3n2-c2cc(on2)C3CCC1 (stereo not drawn) > 100 µM

* * *

Listed next: entries and their corresponding TGI.
- System: SN12C renal
- TEST: NCI tumour cell line growth inhibition, 48 h

Recorded TGI, per entry:
# COMPOUND, TGI
rows = [
    ("Cc1cc(C)c2c(c1)CC1(Cc3c(C)cc(C)cc3C1=O)C2=O (configuration not stated)", "> 100 µM"),
    ("CC1(C)O[C@@H](CP(c2cccc3ccccc23)c2cccc3ccccc23)[C@H](CP(c2cccc3ccccc23)c2cccc3ccccc23)O1", "> 100 µM"),
    ("O=C(Nc1ccccc1C(=O)Nc1nccs1)c1ccccc1", "> 100 µM"),
    ("Cc1nn2c(/C=C3\\C(=O)Nc4ccccc43)c(C)nc2s1", "> 100 µM"),
    ("S=C(Nc1ccccc1)N1CCn2c1nsc2=Nc1ccccc1", "> 100 µM"),
    ("Cc1cccc(C(O)c2cccnc2)c1O (configuration not stated)", "> 100 µM"),
]

Please give the measured TGI for this compound: O=C(O)c1cc2c(c3ccsc13)-c1ccccc1CC2 > 100 µM

Next up: Cc1ccc(S(=O)(=O)c2ccsc2N)cc1 > 100 µM

Next up: C[C@@H](c1ccccc1)N(CC#N)C1CCC[C@H]1O (some centres not stated) > 100 µM

Next up: CCCCCCCCCCCCCCCCNc1ccn(C2CC(OP(=O)(O)OCC3OC(n4cc(CC)c(=O)[nH]c4=O)CC3O)C(CO)O2)c(=O)n1 (configuration not stated) > 100 µM

Next up: COc1cc(CC2CC(c3ccc4c(c3)OCO4)OC2=O)cc(OC)c1OC (configuration not stated) > 100 µM

Next up: c1cc2ccc1CNCCN1CCNCc3ccc(cc3)Oc3ccc(cc3)CNCCN(CCNCc3ccc(cc3)O2)CCNCc2ccc(cc2)Oc2ccc(cc2)CNCC1 1.57 µM

Next up: N#Cc1c(C#N)c(-c2ccccc2)n(/N=C\c2ccccc2)c1N > 100 µM

Next up: COC(=O)C12C3C4C1C1C2C3C41C(=O)N(C(C)C)C(C)C (configuration not stated) > 100 µM

Next up: C=C(C)[C@@H]1CC[C@]2(C)[C@H](CC=C3[C@@H]4[C@H](C)[C@@H](C)CC[C@]4(CO)CC[C@]32C)[C@@]1(C)CCCN 1.67 µM

Next up: COc1cc2c3c(c1OC)Oc1ccc(cc1)CC1c4c(cc(OC)c(OC)c4Oc4ccc(cc4)CC3N(C)CC2)CCN1C (configuration not stated) 49.7 µM

Next up: N#C/C(=C\c1cccnc1)c1nc2ccccc2o1 > 100 µM

Next up: O=C(Nc1ccc(-c2ccnc(Nc3ccc(N4CCOCC4)cc3)n2)cc1)C1CCCN1 (configuration not stated) 44 µM

Next up: CCCNc1cccc(-n2ncc3c(N/N=C/c4ccncc4)ncnc32)c1 > 25 µM

Next up: CCOC(=O)N1C(=S)C(C(=O)OC)(C(=O)OC)N=C1C > 100 µM

Next up: CC(=O)O[C@H]1C(=O)[C@@]2(C)C(C(OC(=O)c3ccccc3)[C@]3(O)CC(OC(=O)C(O)C(NC(=O)c4ccccc4)c4ccc(C)cc4)C(C)=C1C3(C)C)[C@]1(OC(C)=O)CO[C@@H]1C[C@@H]2O (some centres not stated) > 25 µM

Next up: COC(=O)c1c(C#C[Si](C)(C)C)c(C#C[Si](C)(C)C)c(C#C[Si](C)(C)C)c(C#C[Si](C)(C)C)c1C(=O)OC > 100 µM

Next up: CC1(O)C(=O)OC2CC([C@]3(O)CCC4[C@@H]5C[C@H]6O[C@]67[C@@H](O)C=CC(=O)[C@]7(C)C5CC[C@@]43C)C1(C)C2 (some centres not stated) 63.4 µM

Next up: O=C(Nc1cccc([N+](=O)[O-])c1)c1cc2ccccc2cc1O 7.78 µM

Next up: C[C@H]1CCC/C=C/[C@@H]2C[C@H](O)C[C@H]2[C@H](O)[C@@H](SC2OC(CO)C(O)C(O)C2O)CC(=O)O1 (some centres not stated) > 100 µM

Next up: COc1ccc(N2C(=O)/C(=C/c3ccc(N(CCC#N)CCC#N)cc3)N=C2c2ccccc2)c(OC)c1 > 100 µM

Next up: CCC(=O)OC1=CN2C(=NC(c3ccc(N)cc3)=CC2c2cc(OC)c(OC)c(OC)c2)S1 (configuration not stated) 22.2 µM

* * *

Listed next: entries and their corresponding TGI.
- Test system: U251 CNS
- TEST: NCI tumour cell line growth inhibition, 48 h

# COMPOUND, TGI
rows = [
    ("CCOC(=O)c1c(-c2ccc(OC)c(O)c2)c(C#N)c(=S)n(C2OC(CO)C(O)C(O)C2O)c1-c1ccccc1 (stereo unspecified)", "> 100 µM"),
    ("CCCCCCCCCCCCCCC(O)C1CCC(C(O)CCC(O)CCCCCC(O)CC2=CC(C)OC2=O)O1 (stereo unspecified)", "20.9 µM"),
]

Please give the measured TGI for this compound: CC1OC=CC(=O)C1O (stereo unspecified) > 100 µM

Next up: C=CCn1c(=O)c2ccccc2[n+]2c(-c3cccc([N+](=O)[O-])c3)csc12 > 100 µM

Next up: c1ccc2c(c1)c1c3n2-c2cc(on2)C3CCC1 (stereo unspecified) > 100 µM

Next up: O=S(=O)(O)c1ccc(Nc2ccnc3cc(Cl)ccc23)cc1 > 100 µM

* * *

- Test system: T-47D breast
- TEST: NCI tumour cell line growth inhibition, 48 h
MEASURED PROPERTY: TGI (µM)
Give the quantity in µM, number only.

Recorded TGI, per entry:
# COMPOUND, EXPERIMENTAL SYSTEM, MEASURED PROPERTY, NUMBER
data = [
    ("C=CCn1c(=O)c2ccccc2[n+]2c(-c3cccc([N+](=O)[O-])c3)csc12", "T-47D breast", "TGI", 72.8),
    ("C=C(C(=O)OC)[C@H]1CC/C(C)=C/CC/C(C)=C/CC[C@@]2(C)O[C@@H]2C1", "T-47D breast", "TGI", 44.7),
    ("CC(C)=CCC/C(C)=C/[C@H]1OC(=O)CC12C[C@H](O)C=CC2=O (stereo not given in full)", "T-47D breast", "TGI", 0.692),
    ("c1ccc(-c2cnc3nc4ccccc4nc3n2)cc1", "T-47D breast", "TGI", 47),
    ("O=C(Nc1ccccc1C(=O)Nc1nccs1)c1ccccc1", "T-47D breast", "TGI", 56.4),
    ("Cc1ccc(S(=O)(=O)N2CCN(CCO)CCN(S(=O)(=O)c3ccc(C)cc3)CCN(CCO)CC2)cc1", "T-47D breast", "TGI", 36.2),
    ("Cc1nn(-c2ccccn2)c2c1C(SC#N)=C(C=O)CC2", "T-47D breast", "TGI", 20.3),
]

Pending compound:
Please give the measured TGI for this compound: C=C(C)[C@@H]1CC[C@]2(C)[C@H](CC=C3[C@@H]4[C@H](C)[C@@H](C)CC[C@]4(CO)CC[C@]32C)[C@@]1(C)CCCN 5.15

* * *

- System: MDA-MB-435
- TEST: NCI tumour cell line growth inhibition, 48 h
Listed next: entries and their corresponding TGI.

Recorded TGI, per entry:
# COMPOUND, RESULT
records = [
    ("O=C1NC(O)CCN1C1CC(O)C(CO)O1 (stereo unspecified)", "> 100 µM"),
    ("Cn1c(=O)c2sc3cc4c(cc3c2c2ccccc21)sc1c(=O)n(C)c2ccccc2c14", "> 100 µM"),
    ("CC1(C)CC(=O)C(=CN2C(=O)CNC2=S)C(=O)C1", "> 100 µM"),
    ("O=C(Nc1cccc([N+](=O)[O-])c1)c1cc2ccccc2cc1O", "5.41 µM"),
    ("COc1ccc(NS(=O)c2cccc(C)c2)cc1 (stereo unspecified)", "> 100 µM"),
]

Please give the measured TGI for this compound: CN(C)CCNc1c2c(c(NCCN(C)C)c3c(CO)c[nH]c13)C(=O)c1ccccc1C2=O 20.6 µM
